# key: entry, value: MCH-5 k3/Ki
target: MCH-5 (Homo sapiens, UniProt Q14790); test: Dissociation constant Ki and irreversible rate constant k3 for irreversible inhibitors (Mch5); assay type: biochemical; conditions: continuous assay 60 min, reaction initiated by adding enzyme to substrate-inhibitor mixture
Sequence (Q14790 217-374 limits assumed, species assumed): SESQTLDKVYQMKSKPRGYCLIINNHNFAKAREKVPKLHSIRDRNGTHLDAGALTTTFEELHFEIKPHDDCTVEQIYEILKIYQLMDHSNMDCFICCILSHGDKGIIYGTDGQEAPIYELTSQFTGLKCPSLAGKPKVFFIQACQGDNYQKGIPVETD
Sequence (Q14790 385-479 limits assumed, species assumed): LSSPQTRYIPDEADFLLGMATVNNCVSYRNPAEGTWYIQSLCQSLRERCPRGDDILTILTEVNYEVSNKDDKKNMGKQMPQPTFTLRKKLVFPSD

>>> recorded_value("CC(C)[C@H](NC(=O)C(=O)Nc1cc(C(C)(C)C)ccc1C(C)(C)C)C(=O)N[C@@H](CC(=O)O)C(=O)COc1c(F)c(F)cc(F)c1F [Example 109]")
"51,300 moles^−1 seconds^−1"
>>> recorded_value("C[C@H](NC(=O)C(=O)Nc1cc(C(C)(C)C)ccc1C(C)(C)C)C(=O)N[C@@H](CC(=O)O)C(=O)COC(=O)c1c(Cl)cccc1Cl [Example 60]")
"306,000 moles^−1 seconds^−1"

// below: MCH-5 k3/Ki requested for another compound
Name the recorded MCH-5 k3/Ki of the compound listed here: C[C@H](NC(=O)C(=O)Nc1ccccc1C(C)(C)C)C(=O)N[C@@H](CC(=O)O)C(=O)COP(=O)(c1ccccc1)c1ccccc1 [Example 32]
282,000 moles^−1 seconds^−1

###

# key: entry, value: CPP32 k3/Ki
molecular target: CPP32 (Homo sapiens); test: Dissociation constant Ki and irreversible rate constant k3 for irreversible inhibitors (CPP32); format: biochemical; details: continuous assay 60 min, reaction initiated by adding enzyme to substrate-inhibitor mixture
Sequence (P42574 29-175 limits assumed, species assumed): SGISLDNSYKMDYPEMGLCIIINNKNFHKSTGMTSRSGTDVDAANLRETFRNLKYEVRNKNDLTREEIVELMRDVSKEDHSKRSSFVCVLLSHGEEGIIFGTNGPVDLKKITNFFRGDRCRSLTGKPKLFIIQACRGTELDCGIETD
Sequence (P42574 176-277 limits assumed, species assumed): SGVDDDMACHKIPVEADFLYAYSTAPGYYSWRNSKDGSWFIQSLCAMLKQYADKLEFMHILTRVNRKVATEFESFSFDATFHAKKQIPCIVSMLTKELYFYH

>>> recorded_value("C[C@H](NC(=O)C(=O)Nc1ccccc1Cl)C(=O)N[C@@H](CC(=O)O)C(=O)COP(=O)(c1ccccc1)c1ccccc1 [Example 41]")
"162,000 moles^−1 seconds^−1"
>>> recorded_value("CC(C)[C@H](NC(=O)C(=O)Nc1ccccc1I)C(=O)N[C@@H](CC(=O)O)C(=O)COc1c(F)c(F)cc(F)c1F")
"42,300 moles^−1 seconds^−1"
>>> recorded_value("C[C@H](NC(=O)C(=O)Nc1ccccc1-c1ccccc1)C(=O)N[C@@H](CC(=O)O)C(=O)COP(=O)(c1ccccc1)c1ccccc1")
"243,000 moles^−1 seconds^−1"
>>> recorded_value("C[C@H](NC(=O)C(=O)NCc1ccccc1)C(=O)N[C@@H](CC(=O)O)C(=O)COC(=O)c1c(Cl)cccc1Cl")
"600,000 moles^−1 seconds^−1"
>>> recorded_value("C[C@H](NC(=O)C(=O)Nc1cc(C(F)(F)F)ccc1N1CCOCC1)C(=O)N[C@@H](CC(=O)O)C(=O)COP(=O)(c1ccccc1)c1ccccc1")
"100,000 moles^−1 seconds^−1"
>>> recorded_value("C[C@H](NC(=O)C(=O)NCc1ccccc1)C(=O)N[C@@H](CC(=O)O)C(=O)COc1c(F)c(F)cc(F)c1F")
"54,300 moles^−1 seconds^−1"

Name the recorded CPP32 k3/Ki of the molecule listed here: `CC(C)[C@H](NC(=O)C(=O)Nc1ccccc1Cl)C(=O)N[C@@H](CC(=O)O)C(=O)COc1c(F)c(F)cc(F)c1F`
96,300 moles^−1 seconds^−1

Name the recorded CPP32 k3/Ki of the molecule listed here: C[C@H](NC(=O)C(=O)Nc1cccc2c1CCCC2)C(=O)N[C@@H](CC(=O)O)C(=O)COP(=O)(c1ccccc1)c1ccccc1 [Example 48]
139,000 moles^−1 seconds^−1

###

Biological target: CPP32 (Homo sapiens)
Experiment: Fluorescence enzyme assay, determination of IC50 values (CPP32)
Settings: recombinant enzyme, 30 min preincubation, substrate Acetyl-Asp-Glu-Val-Asp-AMC, room temperature
Description: Fluorescence enzyme assays detecting the activity of the compounds of Formula I utilizing the recombinant ICE and CPP32 enzymes are performed essentially according to Thornberry et al. (Nature, 356:768:774 (1992)) and Nicholson et al. (Nature, 376:37–43 (1995)) respectively, (herein incorporated by reference) in 96 well microtiter plates. […]
Where a SMILES comes first, the peptide text is derived from it. The star is where a group is joined. Cbz = O=C(OCc1ccccc1)*
QUANTITY KIND: pIC50
The scale used: pIC50 is minus the common logarithm of the concentration in molar units.

>>> recorded_value("CC(C)C[C@H](NC(=O)C(=O)Nc1cccc2ccccc12)C(=O)N[C@H](C=O)CC(=O)O")
8.00

Name the recorded pIC50 of the compound listed here: CC(C)[C@H](NC(=O)OCc1ccccc1)C(=O)N[C@@H](C)C(=O)N[C@H](C=O)CC(=O)O [reference, Cbz-ValAlaAsp-H, reference compound] (Cbz-Val-Ala-Asp-aldehyde)
4.33

###

Target: mICE (Mus musculus, UniProt P29452)
Sequence (P29452 123-296 limits assumed): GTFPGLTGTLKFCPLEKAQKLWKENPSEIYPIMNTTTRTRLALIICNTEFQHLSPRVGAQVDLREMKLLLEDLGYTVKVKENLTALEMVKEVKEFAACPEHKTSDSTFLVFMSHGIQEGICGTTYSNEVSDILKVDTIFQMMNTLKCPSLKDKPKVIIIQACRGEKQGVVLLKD
Sequence (P29452 315-402 limits assumed): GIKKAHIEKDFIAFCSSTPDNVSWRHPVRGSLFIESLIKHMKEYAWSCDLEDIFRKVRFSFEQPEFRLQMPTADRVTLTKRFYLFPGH
Experiment: Dissociation constant Ki and irreversible rate constant k3 for irreversible inhibitors (ICE)
Type: biochemical
Details: continuous assay 60 min, reaction initiated by adding enzyme to substrate-inhibitor mixture
# key: entry, value: mICE k3/Ki

A selection of reference data follows.
>>> recorded_value("CC(C)[C@H](NC(=O)C(=O)Nc1ccccc1C(F)(F)F)C(=O)N[C@@H](CC(=O)O)C(=O)COc1c(F)c(F)cc(F)c1F [Example 92]")
"1,044,000 moles^−1 seconds^−1"
>>> recorded_value("CC(C)[C@H](NC(=O)C(=O)Nc1cccc2ccccc12)C(=O)N[C@@H](CC(=O)O)C(=O)COc1ccc(O)cc1 [Example 15]")
"1,840,000 moles^−1 seconds^−1"

// below: mICE k3/Ki requested for another molecule
Name the recorded mICE k3/Ki of the molecule listed here: C[C@H](NC(=O)C(=O)NCc1cccc2ccccc12)C(=O)N[C@@H](CC(=O)O)C(=O)COC(=O)c1c(Cl)cccc1Cl [Example 34]
1,160,000 moles^−1 seconds^−1

###

molecular target: MCH-5 (Homo sapiens); experiment: Dissociation constant Ki and irreversible rate constant k3 for irreversible inhibitors (Mch5); assay type: biochemical; settings: continuous assay 60 min, reaction initiated by adding enzyme to substrate-inhibitor mixture
# key: entry, value: MCH-5 k3/Ki

A selection of reference data follows.
>>> recorded_value("C[C@H](NC(=O)C(=O)NCc1ccccc1)C(=O)N[C@@H](CC(=O)O)C(=O)COC(=O)c1c(Cl)cccc1Cl")
"203,000 moles^−1 seconds^−1"
>>> recorded_value("CC(C)[C@H](NC(=O)C(=O)Nc1ccccn1)C(=O)N[C@@H](CC(=O)O)C(=O)COc1c(F)c(F)cc(F)c1F")
"19,500 moles^−1 seconds^−1"

Name the recorded MCH-5 k3/Ki of the compound listed here: `CC(C)[C@H](NC(=O)C(=O)Nc1c(F)c(F)nc(F)c1F)C(=O)N[C@@H](CC(=O)O)C(=O)COc1c(F)c(F)cc(F)c1F`
389,000 moles^−1 seconds^−1

Name the recorded MCH-5 k3/Ki of the compound listed here: `C[C@H](NC(=O)C(=O)NCc1cccc2ccccc12)C(=O)N[C@@H](CC(=O)O)C(=O)COc1c(F)c(F)cc(F)c1F`
1,260,000 moles^−1 seconds^−1

Name the recorded MCH-5 k3/Ki of the compound listed here: `CC(C)[C@H](NC(=O)C(=O)NC(c1ccccc1)c1ccccc1)C(=O)N[C@@H](CC(=O)O)C(=O)COc1c(F)c(F)cc(F)c1F`
48,600 moles^−1 seconds^−1

Name the recorded MCH-5 k3/Ki of the compound listed here: `CC(C)[C@H](NC(=O)C(=O)Nc1ccccc1Br)C(=O)N[C@@H](CC(=O)O)C(=O)COc1c(F)c(F)cc(F)c1F`
1,305,000 moles^−1 seconds^−1

###

# key: entry, value: pKi
target: mICE (Mus musculus, UniProt P29452); assay: Dissociation constant Ki and irreversible rate constant k3 for irreversible inhibitors (ICE); format: biochemical; conditions: continuous assay 60 min, reaction initiated by adding enzyme to substrate-inhibitor mixture
The scale used: pKi is minus the common logarithm of the concentration in molar units.

A selection of reference data follows.
>>> recorded_value("C[C@H](NC(=O)C(=O)Nc1ccccc1Cl)C(=O)N[C@@H](CC(=O)O)C(=O)COP(=O)(c1ccccc1)c1ccccc1 [Example 57]")
8.28
>>> recorded_value("CC(C)[C@H](NC(=O)C(=O)Nc1ccccc1Cc1ccccc1)C(=O)N[C@@H](CC(=O)O)C(=O)COc1c(F)c(F)cc(F)c1F")
7.37

// below: pKi requested for another molecule
Please indicate recorded pKi of `COC(=O)c1cc(OCC(=O)[C@H](CC(=O)O)NC(=O)[C@@H](NC(=O)C(=O)Nc2cccc3ccccc23)C(C)C)no1` measured with mICE (Mus musculus, UniProt P29452).
7.62

Data provenance: patent US7183260B2
